# assayedTarget: recombinant PRL-3 (Homo sapiens)
# Construct: 6xHis (N, cleaved yes); made in house; host or cells: E. coli One Shot BL21 Star
# Sequence (O75365 whole entry): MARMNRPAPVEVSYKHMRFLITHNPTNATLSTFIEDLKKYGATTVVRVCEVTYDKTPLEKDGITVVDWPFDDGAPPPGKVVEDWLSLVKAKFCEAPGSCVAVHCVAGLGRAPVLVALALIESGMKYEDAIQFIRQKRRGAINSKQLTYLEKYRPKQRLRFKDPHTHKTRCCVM
# assay: In vitro phosphatase assay (DiFMUP hydrolysis), PRL-3; also: test concentration or dose not given here
# Format: biochemical
# testParameters: FDA-approved drug screen; compared to DMSO
attributeMeasured: % Phosphatase Activity (compared to DMSO) PRL-3 (%)
Respond numerically; units are % and should not be typed.

[[record]]
compound = "NC(=O)C[S+]([O-])C(c1ccccc1)c1ccccc1 (stereo not shown) [Modafinil]"
reported = 82

[[record]]
compound = "NC(=O)N1c2ccccc2C=Cc2ccccc21 [Carbamazepine]"
reported = 80

[[record]]
compound = "OCCN1C[C@H](O)[C@@H](O)[C@H](O)[C@H]1CO [Miglitol]"
reported = 88


INPUT: Fill in the blank: the reported % Phosphatase Activity (compared to DMSO) PRL-3 of CCOc1cc2ncc(C#N)c(Nc3ccc(OCc4ccccn4)c(Cl)c3)c2cc1NC(=O)/C=C/CN(C)C [Neratinib (HKI-272)] is ____.
OUTPUT: 91

INPUT: Can you handle CCn1cc(C(=O)O)c(=O)c2cc(F)c(N3CCNCC3)nc21 [Enoxacin] next?
OUTPUT: 98

INPUT: What about this compound? CC(=O)OCC(=O)[C@@]12OC(C)(C)O[C@@H]1C[C@H]1[C@@H]3C[C@H](F)C4=CC(=O)C=C[C@]4(C)[C@@]3(F)[C@@H](O)C[C@@]12C [Fluocinonide]
OUTPUT: 89

====

# assayedTarget: recombinant PRL-1 (Homo sapiens)
# Construct: 6xHis (N, cleaved yes); made in house; host or cells: E. coli One Shot BL21 Star
# Sequence (Q93096 whole entry): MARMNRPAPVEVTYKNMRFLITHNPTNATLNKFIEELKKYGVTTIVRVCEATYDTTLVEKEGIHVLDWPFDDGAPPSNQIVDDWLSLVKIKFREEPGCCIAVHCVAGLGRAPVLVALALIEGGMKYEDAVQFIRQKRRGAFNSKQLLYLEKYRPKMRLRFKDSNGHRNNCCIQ
# assay: In vitro phosphatase assay (DiFMUP hydrolysis), PRL-1; also: test concentration or dose not given here
# Format: biochemical
# testParameters: FDA-approved drug screen; compared to DMSO
Where a name gives a salt, the structure may show the parent alone.
attributeMeasured: % Phosphatase Activity (compared to DMSO) PRL-1 (%)
State the answer as a number, implicitly in %.

[[record]]
compound = "O=C(CCCN1CCC(O)(c2ccc(Cl)cc2)CC1)c1ccc(F)cc1"
reported = 93

[[record]]
compound = "CC(C)C[C@H](NC(=O)CNC(=O)c1cc(Cl)ccc1Cl)B(O)O"
reported = 102

[[record]]
compound = "NC(=O)N1CCC(CC(=O)N2CCC([C@H]3c4ncc(Br)cc4CCc4cc(Cl)cc(Br)c43)CC2)CC1"
reported = 97

[[record]]
compound = "CCCCCCCCCCCCCCCCOP(=O)([O-])OCC[N+](C)(C)C"
reported = 92

[[record]]
compound = "CC(/C=C1\\SC(=S)N(CC(=O)O)C1=O)=C\\c1ccccc1"
reported = 40

[[record]]
compound = "CCCNC(=O)NS(=O)(=O)c1ccc(Cl)cc1 [Chlorpropamide]"
reported = 98


INPUT: Consider the compound `Nc1cc(C(Cl)=C(Cl)Cl)c(S(N)(=O)=O)cc1S(N)(=O)=O` and give its measured % Phosphatase Activity (compared to DMSO) PRL-1.
OUTPUT: 98

INPUT: Same question, CCOC(=O)c1cncn1[C@H](C)c1ccccc1 [Etomidate] this time
OUTPUT: 98

INPUT: Also `N=C(N)c1ccc(OCCCCCOc2ccc(C(=N)N)cc2)cc1` , if possible.
OUTPUT: 113

INPUT: Can you handle CC(C)(O/N=C(\C(=O)N[C@@H]1C(=O)N2C(C(=O)[O-])=C(C[n+]3ccccc3)CS[C@H]12)c1csc(N)n1)C(=O)O [Ceftazidime Pentahydrate] next?
OUTPUT: 100

INPUT: Again, but for `CCOC(=O)[C@H](CCc1ccccc1)N[C@@H](C)C(=O)N1[C@H](C(=O)O)C[C@@H]2CCC[C@@H]21`
OUTPUT: 84

INPUT: Ok, now `CN1C(C(=O)Nc2ccccn2)=C(O)c2sc(Cl)cc2S1(=O)=O`
OUTPUT: 73

INPUT: Repeat with COCCCOc1cc(C[C@@H](C[C@H](N)[C@@H](O)C[C@H](C(=O)NCC(C)(C)C(N)=O)C(C)C)C(C)C)ccc1OC [Aliskiren Hemifumarate]
OUTPUT: 102

INPUT: Same again, this time with CCN(CC)CCNC(=O)c1cc(Cl)c(N)cc1OC.Cl [MetoclopraMide HCl]
OUTPUT: 97

INPUT: Now the same for CN1CCN2c3ccccc3Cc3ccccc3C2C1 (stereo not shown) [Mianserin HCl]
OUTPUT: 95

INPUT: And `O=C(O)CCCC[C@@H]1SC[C@@H]2NC(=O)N[C@@H]21` ?
OUTPUT: 104

INPUT: Please give the result for `COC(=O)Nc1nc2ccc(C(=O)c3ccccc3)cc2[nH]1` too.
OUTPUT: 90

INPUT: Next record, please: CC(=O)OCC[N+](C)(C)C [Acetylcholine Chloride]
OUTPUT: 87

INPUT: Let us now turn to CCCCC(=O)O[C@]1(C(=O)CO)[C@@H](C)C[C@H]2[C@@H]3CCC4=CC(=O)C=C[C@]4(C)[C@@]3(F)[C@@H](O)C[C@@]21C [Betamethasone valerate (Betnovate)]
OUTPUT: 97

INPUT: Further, for NC(=O)c1cn(Cc2c(F)cccc2F)nn1 [Rufinamide] ?
OUTPUT: 91

INPUT: And the next one, `COc1nc(C)nc(Cl)c1N=C1NCCN1` ?
OUTPUT: 105

INPUT: Next: COCCCN1CCC(NC(=O)c2cc(Cl)c(N)c3c2OCC3)CC1.O=C(O)CCC(=O)O [Prucalopride Succinat]
OUTPUT: 76

INPUT: Also `Cn1cnc2c(F)c(Nc3ccc(Br)cc3Cl)c(C(=O)NOCCO)cc21` ?
OUTPUT: 92

INPUT: Same read-out for `O=C(CCCN1CC=C(n2c(=O)[nH]c3ccccc32)CC1)c1ccc(F)cc1` ?
OUTPUT: 85

INPUT: Cl.NCCc1c[nH]c2ccc(O)cc12 [Serotonin HCl] , same question.
OUTPUT: 106

src = paper PMC8119466
